Test system: Escherichia coli
Protocol: Antibacterial activity against carbapenem-resistant blaKPC-encoding plasmid harboring Escherichia coli GeneHogs transformants of Klebsiella pneumoniae 469 producing KPC2, OXA4 and CTX-M-10 carbapenemases

Molecule | MIC
CCN1CCN(C(=O)N[C@@H](C(=O)N[C@@H]2C(=O)N3[C@@H]2SC(C)(C)[C@@H]3C(=O)O)c2ccccc2)C(=O)C1=O [PIPERACILLIN] | > 128 µg/mL
CO/N=C(\C(=O)N[C@@H]1C(=O)N2C(C(=O)O)=C(CSc3nc(=O)c(O)nn3C)CS[C@H]12)c1csc(N)n1 [CEFTRIAXONE] | > 64 µg/mL
C[C@@H](O)[C@H]1C(=O)N2C(C(=O)O)=C(SCCNC=N)C[C@H]12 [IMIPENEM ANHYDROUS] | 4 µg/mL
CN(C)c1cc(NC(=O)CNC(C)(C)C)c(O)c2c1C[C@H]1C[C@H]3[C@H](N(C)C)C(O)=C(C(N)=O)C(=O)[C@@]3(O)C(O)=C1C2=O [TIGECYCLINE] | 0.5 µg/mL
CC(C)(O/N=C(\C(=O)N[C@@H]1C(=O)N2C(C(=O)[O-])=C(C[n+]3ccccc3)CS[C@H]12)c1csc(N)n1)C(=O)O [CEFTAZIDIME] | > 64 µg/mL
C[C@@H](O)[C@H]1C(=O)N2C(C(=O)O)=C(S[C@@H]3CN[C@H](C(=O)N(C)C)C3)[C@H](C)[C@H]12 [MEROPENEM] | 4 µg/mL
NCC[C@H](O)C(=O)N[C@@H]1C[C@H](N)[C@@H](O[C@H]2O[C@H](CN)[C@@H](O)[C@H](O)[C@H]2O)[C@H](O)[C@H]1O[C@H]1O[C@H](CO)[C@@H](O)[C@H](N)[C@H]1O [AMIKACIN] | 16 µg/mL
C[C@H]1[C@H](NC(=O)/C(=N\OC(C)(C)C(=O)O)c2csc(N)n2)C(=O)N1S(=O)(=O)O [AZTREONAM] | 32 µg/mL
C[C@@H](O)[C@H]1C(=O)N2C(C(=O)O)=C(S[C@@H]3CN[C@H](C(=O)Nc4cccc(C(=O)O)c4)C3)[C@H](C)[C@H]12 | 4 µg/mL
